target: binding of His-XIAP(BIR2)-avi fusion protein to GST-RIPK2 fusion protein (RIPK2/XIAP) (Homo sapiens); construct: made in house; host or cells: baculovirus infected Sf9 cells; assay: RIPK2-XIAP binding competition PPI assay (TR-FRET); conditions: RIPK2/XIAP binding competition PPI assay; read-out: PPI IC50 bin
pIC50: −log10 of the molar value.
The compounds listed here are annotated with their pIC50.

{"COMPOUND": "CC(C)(C)S(=O)(=O)c1cn2c(-c3cc(F)c(N)nc3F)cnc2cc1OCC1(CO)CC1 [Example 56]", "pIC50": "7.70 to 8.60"}
{"COMPOUND": "COc1cc2ncc(-c3cc(F)c(N)nc3F)n2cc1S(=O)(=O)C1(C)CCNCC1 [Example 71]", "pIC50": "7.70 to 8.60"}
{"COMPOUND": "CCCS(=O)(=O)Nc1cc(-c2cnc3cc(OC)c(S(=O)(=O)C(C)(C)CO)cn23)cc(OC)c1OC [Example 59]", "pIC50": "> 9.00"}
{"COMPOUND": "Cc1cc2cc(-c3cnc4cc(OCCO)c(S(=O)(=O)C(C)(C)C)cn34)cnc2[nH]1 [Example 232]", "pIC50": "> 9.00"}
{"COMPOUND": "CC(C)(C)S(=O)(=O)c1cn2c(-c3cnc4[nH]c(Cl)cc4c3)cnc2cc1OCCO [Example 233]", "pIC50": "< 7.70"}
{"COMPOUND": "COc1cc2ncc(-c3cc(F)c(N)nc3F)n2cc1C1CCCN(C)C1=O (stereo not shown) [Example 213]", "pIC50": "< 7.70"}

# next compound below
[ask] pIC50 lookup needed for COc1cc2ncc(-c3cc(F)c(OC)c(NC(C)c4cnn(C)c4)c3)n2cc1S(=O)(=O)C(C)(C)C (single isomer, unassigned) [Example 303] , thanks.
[reply] 7.70 to 8.60

====

target: binding of His-XIAP(BIR2)-avi fusion protein to GST-RIPK2 fusion protein (RIPK2/XIAP) (Homo sapiens); construct: made in house; host or cells: baculovirus infected Sf9 cells; assay: RIPK2-XIAP binding competition PPI assay (TR-FRET); settings: RIPK2/XIAP binding competition PPI assay, Amax; read-out: PPI Amax bin
QUANTITY_KIND: Emax

Below are worked cases with known answers.
{"COMPOUND": "COc1cc2ncc(-c3cc(F)c(OC)c(NS(=O)(=O)CC4CC4)c3)n2cc1S(=O)(=O)C(C)(C)C [Example 159]", "Emax": "> 80%"}
{"COMPOUND": "CC(N)COc1cc2ncc(-c3cc(Cl)c(N)nc3F)n2cc1S(=O)(=O)C(C)(C)C (stereo not shown) [Example 239]", "Emax": "> 80%"}

[ask] Emax lookup needed for COc1c(F)cc(-c2cnc3cc(OC[C@H](C)CO)c(S(=O)(=O)C(C)(C)C)cn23)cc1NS(C)(=O)=O [Example 183] , thanks.
[reply] 55 to 80%

[ask] Emax lookup needed for CCCS(=O)(=O)Nc1cc(-c2cnc3cc(OC)c(S(=O)(=O)N4CCOCC4)cn23)cc(F)c1OC [Example 162] , thanks.
[reply] 55 to 80%

====

The compounds listed here are annotated with their pIC50.
biological target: binding of His-XIAP(BIR2)-avi fusion protein to GST-RIPK2 fusion protein (RIPK2/XIAP) (Homo sapiens, UniProt O43353); construct: made in house; host or cells: baculovirus infected Sf9 cells; assay: RIPK2-XIAP binding competition PPI assay (TR-FRET); conditions: RIPK2/XIAP binding competition PPI assay; read-out: PPI IC50 bin
Sequence (O43353 1-310 limits assumed): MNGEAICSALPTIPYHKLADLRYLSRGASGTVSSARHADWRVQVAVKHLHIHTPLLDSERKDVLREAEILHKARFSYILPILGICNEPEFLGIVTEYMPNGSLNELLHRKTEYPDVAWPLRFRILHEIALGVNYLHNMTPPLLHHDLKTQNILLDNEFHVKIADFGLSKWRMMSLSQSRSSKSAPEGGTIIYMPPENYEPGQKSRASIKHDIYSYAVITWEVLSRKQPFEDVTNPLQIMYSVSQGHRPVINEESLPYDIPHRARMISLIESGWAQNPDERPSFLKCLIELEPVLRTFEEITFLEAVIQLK
pIC50: −log10 of the molar value.

[ask] pIC50 lookup needed for COc1cc2ncc(-c3cccc(NS(=O)(=O)C4CN(C(=O)OC(C)(C)C)C4)c3)n2cc1S(=O)(=O)C(C)(C)C [Example 155] , thanks.
[reply] < 7.70

====

biological target: binding of His-XIAP(BIR2)-avi fusion protein to GST-RIPK2 fusion protein (RIPK2/XIAP) (Homo sapiens); construct: made in house; host or cells: baculovirus infected Sf9 cells; experiment: RIPK2-XIAP binding competition PPI assay (TR-FRET); settings: RIPK2/XIAP binding competition PPI assay, Amax; read-out: PPI Amax bin
The compounds listed here are annotated with their Emax.

Below are worked cases with known answers.
{"COMPOUND": "COc1cn2ncc(-c3cc(F)c(OC)c(NS(=O)(=O)c4cnn(C)c4)c3)c2nc1OC", "REPORTED_VALUE": "> 80%"}
{"COMPOUND": "COc1cc2ncc(-c3cc4cc[nH]c4nc3F)n2cc1S(=O)(=O)C(C)(C)C", "REPORTED_VALUE": "> 80%"}
{"COMPOUND": "COc1cc2nc(Cl)c(-c3ccc(N)nc3F)n2cc1S(=O)(=O)C(C)(C)C", "REPORTED_VALUE": "> 80%"}
{"COMPOUND": "Cn1ccc(COc2cc3ncc(-c4cc(F)c(N)nc4F)n3cc2S(=O)(=O)C(C)(C)C)n1", "REPORTED_VALUE": "> 80%"}
{"COMPOUND": "CC(C)(C)S(=O)(=O)c1cn2c(-c3cnc4[nH]c(Cl)cc4c3)cnc2cc1OCCO", "REPORTED_VALUE": "< 30%"}

[ask] Emax lookup needed for COc1cc2ncc(-c3ccc4c(c3)OCC4O)n2cc1S(=O)(=O)C(C)(C)C (centres unmarked) , thanks.
[reply] < 30%

[ask] Emax lookup needed for CCS(=O)(=O)Nc1cc(-c2cnc3cc(OC)c(C(=O)N4CCC(O)CC4)cn23)cc(F)c1OC , thanks.
[reply] > 80%

[ask] Emax lookup needed for C[C@H](O)COc1cc2ncc(-c3cc(F)c(N)nc3F)n2cc1S(=O)(=O)C(C)(C)C , thanks.
[reply] > 80%

====

molecular target: binding of His-XIAP(BIR2)-avi fusion protein to GST-RIPK2 fusion protein (RIPK2/XIAP) (Homo sapiens); construct: made in house; host or cells: baculovirus infected Sf9 cells; experiment: RIPK2-XIAP binding competition PPI assay (TR-FRET); conditions: RIPK2/XIAP binding competition PPI assay, Amax; read-out: PPI Amax bin
QUANTITY_KIND: Emax

Below are worked cases with known answers.
{"STRUCTURE_SMILES_STRING": "COc1c(F)cc(-c2cnc3cc(OC[C@H](C)O)c(S(=O)(=O)C(C)(C)C)cn23)cc1NS(C)(=O)=O", "REPORTED_VALUE": "55 to 80%"}
{"STRUCTURE_SMILES_STRING": "C[C@H](O)COc1cc2ncc(-c3ccc(N)nc3F)n2cc1S(=O)(=O)C(C)(C)C", "REPORTED_VALUE": "> 80%"}
{"STRUCTURE_SMILES_STRING": "CC(C)(C)S(=O)(=O)c1cn2c(-c3cnc4[nH]nnc4c3)cnc2cc1OCCO", "REPORTED_VALUE": "30 to 55%"}

# next molecule below
[ask] Emax lookup needed for CC(C)(C)S(=O)(=O)c1cn2c(-c3cc(F)c(N)nc3F)cnc2cc1NCCO , thanks.
[reply] > 80%

====

The compounds listed here are annotated with their IC50.
target: binding of His-XIAP(BIR2)-avi fusion protein to GST-RIPK2 fusion protein (RIPK2/XIAP) (Homo sapiens, UniProt O43353); construct: made in house; host or cells: baculovirus infected Sf9 cells; test: RIPK2-XIAP binding competition PPI assay (TR-FRET); settings: RIPK2/XIAP binding competition PPI assay; read-out: PPI IC50 bin

Below are worked cases with known answers.
{"COMPOUND": "CC(C)(C)S(=O)(=O)c1cn2c(-c3cc(Cl)c(N)nc3F)cnc2cc1OCCO", "IC50": "1 to 2.5 nM"}
{"COMPOUND": "COc1cc2ncc(-c3cc(F)c(OC)c4[nH]ncc34)n2cc1S(=O)(=O)C(C)(C)C", "IC50": "2.5 to 20 nM"}
{"COMPOUND": "COc1cc2nc(Cl)c(-c3ccc(N)nc3F)n2cc1S(=O)(=O)C(C)(C)C", "IC50": "> 20 nM"}
{"COMPOUND": "COc1cc2ncc(-c3cc(F)c(N)nc3F)n2cc1C1(O)CCN(C)CC1", "IC50": "> 20 nM"}
{"COMPOUND": "CCS(=O)(=O)Nc1cc(-c2cnc3cc(OC)c(C(=O)N4CCC(O)CC4)cn23)cc(F)c1OC", "IC50": "2.5 to 20 nM"}

[ask] IC50 lookup needed for CCC(CO)COc1cc2ncc(-c3cc(F)c(N)nc3F)n2cc1S(=O)(=O)C(C)(C)C (centres unmarked) , thanks.
[reply] 2.5 to 20 nM

[ask] IC50 lookup needed for OCCCNc1cc(-c2cnn3ccc(C(F)(F)F)cc23)cc(F)n1 , thanks.
[reply] > 20 nM

[ask] IC50 lookup needed for C[C@@H](O)COc1cn2ncc(-c3cc(F)c(N)nc3F)c2cc1S(=O)(=O)C(C)(C)C , thanks.
[reply] 1 to 2.5 nM
